System: HEK-293T
PROCEDURE TEXT: Cytotoxicity in Fhit-positive HEK293T cells after 72 hrs bu MTT assay
Type: functional, cell-based
RECORDED CONDITIONS: Homo sapiens
pIC50: −log10 of the molar value.
Known pIC50 of a selection of compounds

Example entries begin here.
[[record]]
compound = "Nc1ncnc2c1ncn2[C@@H]1O[C@H](COP(=O)(S)OCC(COP(=O)(S)OC[C@H]2O[C@@H](n3cnc4c(N)ncnc43)[C@H](O)[C@@H]2O)(COP(=O)(S)OC[C@H]2O[C@@H](n3cnc4c(N)ncnc43)[C@H](O)[C@@H]2O)COP(=O)(S)OC[C@H]2O[C@@H](n3cnc4c(N)ncnc43)[C@H](O)[C@@H]2O)[C@@H](O)[C@H]1O (mixture of isomers)"
experimental_system = "HEK-293T"
observed = "< 4.10"

[[record]]
compound = "Nc1ncnc2c1ncn2[C@@H]1O[C@H](COP(=O)(S)OCC(COP(=O)(O)S)(COP(=O)(S)OC[C@H]2O[C@@H](n3cnc4c(N)ncnc43)[C@H](O)[C@@H]2O)COP(=O)(S)OC[C@H]2O[C@@H](n3cnc4c(N)ncnc43)[C@H](O)[C@@H]2O)[C@@H](O)[C@H]1O (mixture of isomers)"
experimental_system = "HEK-293T"
observed = "< 4.10"

[[record]]
compound = "Nc1ncnc2c1ncn2[C@@H]1O[C@H](COP(=O)(S)OCC(O)COP(=O)(S)OC[C@H]2O[C@@H](n3cnc4c(N)ncnc43)[C@H](O)[C@@H]2O)[C@@H](O)[C@H]1O (mixture of isomers)"
experimental_system = "HEK-293T"
observed = 4.76

[[record]]
compound = "Nc1ncnc2c1ncn2[C@@H]1O[C@H](COP(=O)(S)OCC(COP(=O)(S)OC[C@H]2O[C@@H](n3cnc4c(N)ncnc43)[C@H](O)[C@@H]2O)OP(=O)(O)S)[C@@H](O)[C@H]1O (mixture of isomers)"
experimental_system = "HEK-293T"
observed = "< 4.10"


What pIC50 value was documented for this compound, Nc1ncnc2c1ncn2[C@@H]1O[C@H](COP(=O)(S)OCC(COP(=O)(S)OC[C@H]2O[C@@H](n3cnc4c(N)ncnc43)[C@H](O)[C@@H]2O)OP(=O)(S)OC[C@H]2O[C@@H](n3cnc4c(N)ncnc43)[C@H](O)[C@@H]2O)[C@@H](O)[C@H]1O (mixture of isomers) ?
< 4.10

###

PROCEDURE TEXT: Stability in medium collected from human HEK293T cells assessed as intact compound level at 1 mM incubated up to 48 hrs at 37 degC
Format: ADME, cell-based, HEK-293T
RECORDED CONDITIONS: read-out: Stability
PROPERTY LABEL: remaining at 48 h, 1000 µM (%)
I only need the number, in %, no unit after it.

Example entries begin here.
[[record]]
compound = "Nc1ncnc2c1ncn2[C@@H]1O[C@H](COP(=O)(S)OCC(O)COP(=O)(S)OC[C@H]2O[C@@H](n3cnc4c(N)ncnc43)[C@H](O)[C@@H]2O)[C@@H](O)[C@H]1O (mixture of isomers)"
property_label = "remaining at 48 h, 1000 µM"
observed = 97

[[record]]
compound = "Nc1ncnc2c1ncn2[C@@H]1O[C@H](COP(=O)(O)OP(=O)(O)OP(=O)(O)OC[C@H]2O[C@@H](n3cnc4c(N)ncnc43)[C@H](O)[C@@H]2O)[C@@H](O)[C@H]1O"
property_label = "remaining at 48 h, 1000 µM"
observed = 95

[[record]]
compound = "Nc1ncnc2c1ncn2[C@@H]1O[C@H](COP(=O)(S)OCC(COP(=O)(S)OC[C@H]2O[C@@H](n3cnc4c(N)ncnc43)[C@H](O)[C@@H]2O)OP(=O)(S)OC[C@H]2O[C@@H](n3cnc4c(N)ncnc43)[C@H](O)[C@@H]2O)[C@@H](O)[C@H]1O (mixture of isomers)"
property_label = "remaining at 48 h, 1000 µM"
observed = 97


What remaining at 48 h, 1000 µM value was documented for this compound, Nc1ncnc2c1ncn2[C@@H]1O[C@H](COP(=O)(O)OP(=O)(O)OP(=O)(O)OP(=O)(O)OC[C@H]2O[C@@H](n3cnc4c(N)ncnc43)[C@H](O)[C@@H]2O)[C@@H](O)[C@H]1O [DIADENOSINE TETRAPHOSPHATE] ?
95
